- System: HIV-1 Env-pseudoviruses (208-strain panel)
- protocolText: microbe, parasite or virus in culture
- Format: cell-based
- conditionInfo: Human immunodeficiency virus 1, TZM-bl, M02138, clade AE; read-out: IC50
- Protocol: Neutralization was measured using single-round-of-infection HIV-1 Env-pseudoviruses and TZM-bl target cells (ARP Cat No. #8129)[44],[45]. Compounds were prepared at 400 μM with 4% DMSO (dimethyl sulfoxide) in PBS (phosphate-buffered saline) and diluted 20 times as the starting concentration for serial dilution in the neutralization assays. […] After incubation at 37 °C for 2 days, infection of target cells was measured by luciferase activity. […]
readoutType: IC50 (nM)
Reply with just the number (in nM).

**Query** Return reported IC50; argument: COc1cnc(-c2csc(C(=O)NCCO)n2)c2[nH]cc(C(=O)C(=O)N3CCC(=C(C#N)c4ccccc4)CC3)c12 [BMS-818251]
**Result** 28

----------
- System: HIV-1 Env-pseudoviruses (208-strain panel)
- protocolText: microbe, parasite or virus in culture
- Type: cell-based
- conditionInfo: Human immunodeficiency virus 1, TZM-bl, A07412M1.vrc12, clade D; read-out: IC50
- Method: Neutralization was measured using single-round-of-infection HIV-1 Env-pseudoviruses and TZM-bl target cells (ARP Cat No. #8129)[44],[45]. Compounds were prepared at 400 μM with 4% DMSO (dimethyl sulfoxide) in PBS (phosphate-buffered saline) and diluted 20 times as the starting concentration for serial dilution in the neutralization assays. […] After incubation at 37 °C for 2 days, infection of target cells was measured by luciferase activity. […]
readoutType: pIC50
The scale used: pIC50 is minus the common logarithm of the concentration in molar units.

**Query** Return reported pIC50; argument: COc1cnc(-c2csc(C(=O)NCCO)n2)c2[nH]cc(C(=O)C(=O)N3CCC(=C(C#N)c4ccccc4)CC3)c12 [BMS-818251]
**Result** 9.00

----------
- Test system: HIV-1 Env-pseudoviruses (30-strain panel)
- protocolText: Neutralization assay, cross-clade 30-strain panel (Env-pseudoviruses, TZM-bl target cells)
- Type: cell-based
- conditionInfo: Human immunodeficiency virus 1, TZM-bl, ZM106.9 (Clade C); read-out: IC50
readoutType: pIC50
The scale used: pIC50 is minus the common logarithm of the concentration in molar units.

Please review the following examples before continuing.
1) COc1cnc(-c2csc(C(=O)NCCO)n2)c2[nH]cc(C(=O)C(=O)N3CCC(=C(C#N)c4ccccc4)CC3)c12    9.30
2) O=C(C(=O)N1CCN(C(=O)c2ccccc2)CC1)c1c[nH]c2c(F)ccc(Br)c12    4.97
3) COc1cnc(-n2cnc(C)n2)c2[nH]cc(C(=O)C(=O)N3CCN(C(=O)c4ccccc4)CC3)c12    7.80

**Query** Return reported pIC50; argument: `COc1cnc(-c2csc(CN(C)CCCN(C)C)n2)c2[nH]cc(C(=O)C(=O)N3CCC(=C(C#N)c4ccccc4)CC3)c12`
**Result** 7.51

----------
- Tested on: HIV-1 Env-pseudoviruses (208-strain panel)
- protocolText: microbe, parasite or virus in culture
- Format: cell-based
- conditionInfo: Human immunodeficiency virus 1, TZM-bl, DU156.12 (Clade C); read-out: IC50
readoutType: IC50 (nM)
Reply with just the number (in nM).

**Query** Return reported IC50; argument: `COc1cnc(-c2csc(C(=O)NCCO)n2)c2[nH]cc(C(=O)C(=O)N3CCC(=C(C#N)c4ccccc4)CC3)c12`
**Result** 0.2

----------
- Test system: HIV-1 Env-pseudoviruses (208-strain panel)
- protocolText: microbe, parasite or virus in culture
- Format: cell-based
- conditionInfo: Human immunodeficiency virus 1, TZM-bl, BJOX028000.10.3 (Clade AE); read-out: IC50
readoutType: pIC50
The scale used: pIC50 is minus the common logarithm of the concentration in molar units.

**Query** Return reported pIC50; argument: `COc1cnc(-c2csc(C(=O)NCCO)n2)c2[nH]cc(C(=O)C(=O)N3CCC(=C(C#N)c4ccccc4)CC3)c12`
**Result** 6.63

----------
- Tested on: HIV-1 Env-pseudoviruses (30-strain panel)
- protocolText: Neutralization assay, cross-clade 30-strain panel (Env-pseudoviruses, TZM-bl target cells)
- Format: cell-based
- conditionInfo: Human immunodeficiency virus 1, TZM-bl, CAP210.E8 (Clade C); read-out: IC50
IC50 by entry:

1. O=C(c1ccsc1)N1CCN(C(=O)C2(c3cccc(Cl)c3)CC2)CC1 [Compound 484, reference compound]    > 20 µM
2. COc1cnc(-n2cnc(C)n2)c2[nH]cc(C(=O)C(=O)N3CCN(C(=O)c4ccccc4)CC3)c12 [BMS-626529]    0.066 µM
3. COc1cnc(-c2csc(C(=O)NCCO)n2)c2[nH]cc(C(=O)C(=O)N3CCC(=C(C#N)c4ccccc4)CC3)c12 [BMS-818251]    0.022 µM
4. COc1cnc(-c2csc(CN(C)CCCN(C)C)n2)c2[nH]cc(C(=O)C(=O)N3CCC(=C(C#N)c4ccccc4)CC3)c12 [BMS-814508]    0.4 µM

Alright, here's another compound for you.
**Query** Form field - read-out: IC50; system: HIV-1 Env-pseudoviruses (30-strain panel); submitted item: O=C(C(=O)N1CCN(C(=O)c2ccccc2)CC1)c1c[nH]c2c(F)ccc(Br)c12 [BMS-386150]
**Result** > 20 µM

----------
- Test system: HIV-1 Env-pseudoviruses (208-strain panel)
- protocolText: microbe, parasite or virus in culture
- Format: cell-based
- conditionInfo: Human immunodeficiency virus 1, TZM-bl, Q23.17, clade A; read-out: IC50
readoutType: pIC50
The scale used: pIC50 is minus the common logarithm of the concentration in molar units.

**Query** Return reported pIC50; argument: `COc1cnc(-c2csc(C(=O)NCCO)n2)c2[nH]cc(C(=O)C(=O)N3CCC(=C(C#N)c4ccccc4)CC3)c12`
**Result** 9.30

----------
- System: HIV-1 Env-pseudoviruses (30-strain panel)
- protocolText: Neutralization assay, cross-clade 30-strain panel (Env-pseudoviruses, TZM-bl target cells)
- Format: cell-based
- conditionInfo: Human immunodeficiency virus 1, TZM-bl, CNE10 (Clade B); read-out: IC50
IC50 by entry:
Reply with just the number (in nM).

1. COc1cnc(-n2cnc(C)n2)c2[nH]cc(C(=O)C(=O)N3CCN(C(=O)c4ccccc4)CC3)c12 [BMS-626529]    2
2. COc1cnc(-c2csc(CN(C)CCCN(C)C)n2)c2[nH]cc(C(=O)C(=O)N3CCC(=C(C#N)c4ccccc4)CC3)c12 [BMS-814508]    4
3. O=C(c1ccsc1)N1CCN(C(=O)C2(c3cccc(Cl)c3)CC2)CC1 [Compound 484, reference compound]    1940

Alright, here's another molecule for you.
**Query** Return reported IC50; argument: O=C(C(=O)N1CCN(C(=O)c2ccccc2)CC1)c1c[nH]c2c(F)ccc(Br)c12 [BMS-386150]
**Result** 509

----------
- Tested on: HIV-1 Env-pseudoviruses (208-strain panel)
- protocolText: microbe, parasite or virus in culture
- Assay type: cell-based
- conditionInfo: Human immunodeficiency virus 1, TZM-bl, Q769.d22, clade A; read-out: IC50
- Description: Neutralization was measured using single-round-of-infection HIV-1 Env-pseudoviruses and TZM-bl target cells (ARP Cat No. #8129)[44],[45]. Compounds were prepared at 400 μM with 4% DMSO (dimethyl sulfoxide) in PBS (phosphate-buffered saline) and diluted 20 times as the starting concentration for serial dilution in the neutralization assays. […] After incubation at 37 °C for 2 days, infection of target cells was measured by luciferase activity. […]
readoutType: pIC50
The scale used: pIC50 is minus the common logarithm of the concentration in molar units.

**Query** Return reported pIC50; argument: `COc1cnc(-c2csc(C(=O)NCCO)n2)c2[nH]cc(C(=O)C(=O)N3CCC(=C(C#N)c4ccccc4)CC3)c12`
**Result** 9.00

----------
- Test system: HIV-1 Env-pseudoviruses (208-strain panel)
- protocolText: microbe, parasite or virus in culture
- Type: cell-based
- conditionInfo: Human immunodeficiency virus 1, TZM-bl, DU151.02, clade C; read-out: IC50
readoutType: IC50 (pM)
Reply with just the number (in pM).

**Query** Return reported IC50; argument: COc1cnc(-c2csc(C(=O)NCCO)n2)c2[nH]cc(C(=O)C(=O)N3CCC(=C(C#N)c4ccccc4)CC3)c12 [BMS-818251]
**Result** 200

----------
pIC50 by entry:
- Tested on: HIV-1 Env-pseudoviruses (30-strain panel)
- protocolText: Neutralization assay, cross-clade 30-strain panel (Env-pseudoviruses, TZM-bl target cells)
- Format: cell-based
- conditionInfo: Human immunodeficiency virus 1, TZM-bl, BJOX028000.10.3 (Clade AE); read-out: IC50
pIC50: −log10 of the molar value.

1) COc1cnc(-c2csc(CN(C)CCCN(C)C)n2)c2[nH]cc(C(=O)C(=O)N3CCC(=C(C#N)c4ccccc4)CC3)c12    < 5.40
2) COc1cnc(-n2cnc(C)n2)c2[nH]cc(C(=O)C(=O)N3CCN(C(=O)c4ccccc4)CC3)c12    < 4.70
3) O=C(C(=O)N1CCN(C(=O)c2ccccc2)CC1)c1c[nH]c2c(F)ccc(Br)c12    < 4.70
4) COc1cnc(-c2csc(C(=O)NCCO)n2)c2[nH]cc(C(=O)C(=O)N3CCC(=C(C#N)c4ccccc4)CC3)c12    6.13

**Query** Return reported pIC50; argument: O=C(c1ccsc1)N1CCN(C(=O)C2(c3cccc(Cl)c3)CC2)CC1 [Compound 484, reference compound]
**Result** < 4.70
